Just for reference, paper PMC10108347 is where these values come from.

- TARGET ENTITY: UniProtKB Q13490
- Sequence (Q13490 whole entry): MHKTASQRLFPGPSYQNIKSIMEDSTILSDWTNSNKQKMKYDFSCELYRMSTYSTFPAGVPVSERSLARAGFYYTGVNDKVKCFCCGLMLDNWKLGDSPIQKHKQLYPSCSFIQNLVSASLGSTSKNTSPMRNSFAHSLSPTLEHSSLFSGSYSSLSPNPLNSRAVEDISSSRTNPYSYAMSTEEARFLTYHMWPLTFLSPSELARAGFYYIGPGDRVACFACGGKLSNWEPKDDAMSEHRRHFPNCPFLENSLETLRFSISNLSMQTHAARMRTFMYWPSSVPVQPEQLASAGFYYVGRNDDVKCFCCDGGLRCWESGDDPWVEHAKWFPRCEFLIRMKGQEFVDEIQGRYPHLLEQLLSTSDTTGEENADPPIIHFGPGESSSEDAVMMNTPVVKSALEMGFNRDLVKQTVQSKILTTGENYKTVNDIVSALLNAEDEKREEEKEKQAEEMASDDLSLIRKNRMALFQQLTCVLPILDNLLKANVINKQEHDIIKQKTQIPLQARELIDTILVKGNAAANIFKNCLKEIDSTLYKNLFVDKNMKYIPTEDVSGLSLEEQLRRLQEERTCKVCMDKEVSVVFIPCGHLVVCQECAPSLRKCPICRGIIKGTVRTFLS
- MEASUREMENT PROTOCOL: Immunoblotting (western blot) quantification of cIAP1 levels in MM.1S cells
- CONDITION PARAMETERS: MM1.S, 16 h, read-out: %remaining protein cIAP1
PARAMETER MEASURED: remaining activity at 0.1 µM

Solved cases below.
>  <ENTRY SMILES>
CN[C@@H](C)C(=O)N[C@H](C(=O)N1C[C@@H](Oc2cccc(OCCCCCCCCOc3cc(-c4scnc4C)ccc3CNC(=O)[C@@H]3C[C@@H](O)CN3C(=O)[C@H](C(C)C)N3Cc4ccccc4C3=O)c2)C[C@H]1C(=O)N[C@@H]1CCCc2ccccc21)C1CCCCC1

>  <TARGET ENTITY>
UniProtKB Q13490

>  <RESULT>
3%

$$$$
>  <ENTRY SMILES>
CN[C@@H](C)C(=O)N[C@H](C(=O)N1C[C@@H](Oc2cccc(OCCOCCOCCOCCOc3cc(-c4scnc4C)ccc3CNC(=O)[C@@H]3C[C@@H](O)CN3C(=O)[C@H](C(C)C)N3Cc4ccccc4C3=O)c2)C[C@H]1C(=O)N[C@@H]1CCCc2ccccc21)C1CCCCC1

>  <TARGET ENTITY>
UniProtKB Q13490

>  <RESULT>
3%

$$$$
>  <ENTRY SMILES>
CN[C@@H](C)C(=O)N[C@H](C(=O)N1C[C@@H](Oc2cccc(OCCOCCOCCOc3cc(-c4scnc4C)ccc3CNC(=O)[C@@H]3C[C@@H](O)CN3C(=O)[C@H](C(C)C)N3Cc4ccccc4C3=O)c2)C[C@H]1C(=O)N[C@@H]1CCCc2ccccc21)C1CCCCC1

>  <TARGET ENTITY>
UniProtKB Q13490

>  <RESULT>
3%

$$$$

We now examine a further compound.
Enquiry: Note down remaining activity at 0.1 µM recorded for `CN[C@@H](C)C(=O)N[C@H](C(=O)N1C[C@@H](Oc2cccc(OCCCCCCOCCCCCCOCCCCCCOc3cc(-c4scnc4C)ccc3CNC(=O)[C@@H]3C[C@@H](O)CN3C(=O)[C@H](C(C)C)N3Cc4ccccc4C3=O)c2)C[C@H]1C(=O)N[C@@H]1CCCc2ccccc21)C1CCCCC1`
Return: 27%

----------
- TARGET ENTITY: cIAP2 (Homo sapiens, UniProt Q13489)
- Sequence (Q13489 whole entry): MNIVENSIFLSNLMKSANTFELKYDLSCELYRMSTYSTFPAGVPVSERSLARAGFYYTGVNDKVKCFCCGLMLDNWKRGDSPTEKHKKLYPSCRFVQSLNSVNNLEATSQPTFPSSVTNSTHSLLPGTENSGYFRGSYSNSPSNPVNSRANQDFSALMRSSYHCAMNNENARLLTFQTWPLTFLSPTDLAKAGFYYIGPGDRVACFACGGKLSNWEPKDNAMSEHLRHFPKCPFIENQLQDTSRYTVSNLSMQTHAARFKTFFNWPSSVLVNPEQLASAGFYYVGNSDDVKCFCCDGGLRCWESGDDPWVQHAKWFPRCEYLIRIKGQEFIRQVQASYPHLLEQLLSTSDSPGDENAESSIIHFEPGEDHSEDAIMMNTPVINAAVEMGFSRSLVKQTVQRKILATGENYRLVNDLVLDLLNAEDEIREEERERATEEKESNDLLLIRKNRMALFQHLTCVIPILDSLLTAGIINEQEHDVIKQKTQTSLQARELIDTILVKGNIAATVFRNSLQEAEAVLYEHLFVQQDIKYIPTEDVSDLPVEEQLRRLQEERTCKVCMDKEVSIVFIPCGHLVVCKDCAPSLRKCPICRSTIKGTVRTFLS
- MEASUREMENT PROTOCOL: Immunoblotting (western blot) quantification of cIAP2 levels in MM.1S cells
- CONDITION PARAMETERS: MM1.S, 16 h, read-out: %remaining protein cIAP2, MM.1S cells, 16 h treatment at 0.1 μM, normalized to loading control and DMSO
true if remaining activity at 0.1 µM is below 40%. false if not; exact matches included in false.

Study these solved cases before continuing.
>  <MOLECULE>
CN[C@@H](C)C(=O)N[C@H](C(=O)N1C[C@@H](Oc2cccc(OCCOCCOCCNc3cccc4c3C(=O)N(C3CCC(=O)NC3=O)C4=O)c2)C[C@H]1C(=O)N[C@@H]1CCCc2ccccc21)C1CCCCC1 (stereo partly shown) [PROTAC 23]

>  <CATEGORY LABEL>
true

$$$$
>  <MOLECULE>
CN[C@H](C)C(=O)N[C@H](C(=O)N1C[C@@H](Oc2cccc(OCCCCC(=O)N[C@H](C(=O)N3C[C@H](O)C[C@H]3C(=O)N[C@@H](C)c3ccc(-c4scnc4C)cc3)C(C)(C)C)c2)C[C@H]1C(=O)N[C@@H]1CCCc2ccccc21)C1CCCCC1 [PROTAC 10a]

>  <CATEGORY LABEL>
true

$$$$
>  <MOLECULE>
CC(=O)N(C)[C@@H](C)C(=O)N[C@H](C(=O)N1C[C@@H](Oc2cccc(OCCCCC(=O)N[C@H](C(=O)N3C[C@H](O)C[C@H]3C(=O)N[C@@H](C)c3ccc(-c4scnc4C)cc3)C(C)(C)C)c2)C[C@H]1C(=O)N[C@@H]1CCCc2ccccc21)C1CCCCC1 [PROTAC 10c]

>  <CATEGORY LABEL>
false

$$$$
>  <MOLECULE>
CN[C@@H](C)C(=O)N[C@H](C(=O)N1C[C@@H](Oc2cccc(OCCCCCCOCCCCCCOCCCCCCNc3cccc4c3C(=O)N(C3CCC(=O)NC3=O)C4=O)c2)C[C@H]1C(=O)N[C@@H]1CCCc2ccccc21)C1CCCCC1 (stereo partly shown) [PROTAC 27]

>  <CATEGORY LABEL>
false

$$$$
>  <MOLECULE>
CN[C@@H](C)C(=O)N[C@H](C(=O)N1C[C@@H](Oc2cccc(OCCOCCOCCOCCNc3cccc4c3C(=O)N(C3CCC(=O)NC3=O)C4=O)c2)C[C@H]1C(=O)N[C@@H]1CCCc2ccccc21)C1CCCCC1 (stereo partly shown) [PROTAC 24]

>  <CATEGORY LABEL>
true

$$$$

With those in mind, consider the next molecule.
Enquiry: Lab log: compare recorded remaining activity at 0.1 µM with 40%; is it strictly lower for CN[C@@H](C)C(=O)N[C@H](C(=O)N1C[C@@H](Oc2cccc(OCCCCC(=O)N[C@H](C(=O)N3C[C@H](O)C[C@H]3C(=O)N[C@@H](C)c3ccc(-c4scnc4C)cc3)C(C)(C)C)c2)C[C@H]1C(=O)N[C@@H]1CCCc2ccccc21)C1CCCCC1 [PROTAC 9] ?
Return: true
